B1: HDV Ribozyme (parent)
chain: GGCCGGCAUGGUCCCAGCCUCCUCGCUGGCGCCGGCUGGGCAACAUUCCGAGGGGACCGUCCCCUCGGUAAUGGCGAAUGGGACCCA

variants of: B1; assay: self-cleavage, relative activity (ratio to wild type); higher = more cleavage; co-transcriptional
reported endpoint: self-cleavage
Answer with a number only.

Item: A8C A43U | self-cleavage: 0.289

So, C13G G25A ? Its self-cleavage was 0

Field self-cleavage (entry A16C C22G ) reads 0.0426

Lab note: measured self-cleavage of U46A G55U was 0.85

// recorded self-cleavage for C41A G82C : 0.289

For reference, reported self-cleavage for C63U G73U stands at 0.409

For reference, reported self-cleavage for C14U G40U stands at 0.724

Sample G50A G74A ; self-cleavage observed: 0.411

Next:
self-cleavage recorded for this variant, U46A C86U , is 0.594

# variant C33A C66G ; its self-cleavage = 0.302

Summary for this variant, G6U C19G : self-cleavage is 0.0692
